- System Under Test: Cyclin-dependent kinase 2 (Homo sapiens) (UniProt P24941);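 further: mean inhibition of CDK2 in complex with cyclin E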
- Condition Parameters: at 0.1 µM
Attribute Measured: inhibition (%)

Molecule	Attribute Measured	Reading Unit	Assay Result
CC1=C(C(=O)Nc2ccc3[nH]ncc3c2)C(c2ccc(Cl)c(Cl)c2)CC(=O)N1 (stereo unspecified)	inhibition	%	-0.59
CC1=C(C(=O)Nc2ccc3[nH]ncc3c2)C(c2ccc(F)cc2)NC(=O)N1 (stereo unspecified)	inhibition	%	2.47
CCn1c(-c2nonc2N)nc2c(C#CC(C)(C)O)nc(CN3CCCC3)cc21	inhibition	%	0.5
COc1cc(C=NNc2ncnc3c2cnn3-c2ccccc2)ccc1O	inhibition	%	2.88
COC(=O)Nc1nc2cc(Oc3cccc(NC(=O)Nc4cc(C(F)(F)F)ccc4F)c3)ccc2[nH]1	inhibition	%	0.62
CCn1c(-c2nonc2N)nc2cncc(C(=O)N3CC[C@H](N)C3)c21	inhibition	%	2.3
NC(=O)c1cccc(Nc2nccc(Nc3cccc4[nH]ncc34)n2)c1	inhibition	%	3.38
Cn1cc(C=C2C(=O)Nc3cccnc32)c2ccccc21	inhibition	%	7.44
Fc1cccc(COc2ccc(Nc3ncnc4cc(-c5ccc[nH]5)sc34)cc2Cl)c1	inhibition	%	-0.46
CS(=O)(=O)Nc1ccc(N/C=C2\C(=O)Nc3ccccc32)cc1	inhibition	%	2.53
COc1cc2ncn(-c3cc(OCc4ccccc4Cl)c(C(N)=O)s3)c2cc1OC	inhibition	%	2.24
NCc1ccc(-c2nc(-c3ccc(Cl)c(O)c3)c(-c3ccncc3)[nH]2)cc1	inhibition	%	1.58
COc1cc(C)c(NC(=O)CN(C)C)cc1Nc1nc(Nc2cccc(F)c2C(N)=O)c2cc[nH]c2n1	inhibition	%	-0.26
O=C1NC(=O)C(c2cccc(Cl)c2)=C1Nc1ccc(O)c(Cl)c1	inhibition	%	2.79
COc1cccc(-n2ncc3c(N/N=C/c4cccc(F)c4)ncnc32)c1	inhibition	%	0.9
COc1cc2c(cc1Nc1nc(N3CCc4ccccc43)c3cc[nH]c3n1)N(C(=O)CN(C)C)CC2	inhibition	%	1.6
O=C(Nc1n[nH]c2nc(-c3ccco3)c(Br)cc12)C1CC1	inhibition	%	3.75
CS(=O)(=O)CCNCc1nc(-c2ccc3ncnc(Nc4ccc(F)c(Cl)c4)c3c2)cs1	inhibition	%	0.06
Cc1cc(O)cc(C)c1/C=C/c1cncc(-c2nn[nH]n2)c1	inhibition	%	0.42
CCn1c(-c2nonc2N)nc2c(C#CC(C)(C)O)nc(OC[C@@H](N)c3ccccc3)cc21	inhibition	%	-0.8
CC(C)=Cc1cccc2c1/C(=N/Nc1ccc(S(N)(=O)=O)cc1)C(=O)N2	inhibition	%	74.1
